// IC50 lookup, one value per entry
System: Fibroblast
assay text: Cytotoxicity against human fibroblasts cells assessed as cell growth inhibition by MTT assay
Type: cell-based
The reply should contain only the number, in nM.

>>> value("N=C(N/N=C/c1ccccc1O)c1nonc1NCNc1nonc1C(=N)N/N=C/c1ccccc1O")
410

// switching to the query molecule
Form: molecule = COc1cc(C(NC2=NC(=O)C(CC(=O)Nc3ccc(C(=O)O)cc3)S2)c2c(O)[nH]c(=O)[nH]c2=O)ccc1O (configuration not stated) ; IC50 = 1670
